Target: RUNX1 (UniProt Q01196)
Sequence (Q01196 whole entry): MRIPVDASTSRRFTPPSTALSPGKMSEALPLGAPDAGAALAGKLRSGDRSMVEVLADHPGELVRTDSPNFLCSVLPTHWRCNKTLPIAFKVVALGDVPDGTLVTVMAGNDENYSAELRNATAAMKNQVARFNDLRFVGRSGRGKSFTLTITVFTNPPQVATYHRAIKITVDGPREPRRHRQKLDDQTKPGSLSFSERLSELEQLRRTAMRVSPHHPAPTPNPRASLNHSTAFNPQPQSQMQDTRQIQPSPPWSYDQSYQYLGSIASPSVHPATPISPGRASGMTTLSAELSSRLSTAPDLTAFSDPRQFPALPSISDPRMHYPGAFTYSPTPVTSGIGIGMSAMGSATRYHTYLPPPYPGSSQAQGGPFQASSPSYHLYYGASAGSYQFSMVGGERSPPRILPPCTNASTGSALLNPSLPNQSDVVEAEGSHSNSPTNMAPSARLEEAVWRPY
Experiment: RUNX1 binding intensity (PBM fluorescence) in presence of ETS1, normalised to RUNX1-only experiment (arbitrary fluorescence units); higher = stronger binding;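 further: Full-length recombinant human ETS1 or RUNX1 bound to double-stranded 36-bp genomic probes on microarrays, detected by protein-specific primary antibody and Alexa488 secondary, spot fluorescence as median of four replicate spots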
Settings: RUNX1 concentration 2 nM; ETS1 concentration 25 nM
Overview of recorded RUNX1 binding intensity for various sequences
Answer with the value's number alone.

Reference set (6 entries):
CTTCTACTTCCTGCCCCGCCCCCAGCTGTGGTCACA; 3430
GAAGTGTGCTCTTCCGGTACCTGCGGTTCGTTGCGC; 2670
TGGTGCCAAACATCCGCTAGCCACAGAAAAACCGAC; 1640
TTAGGCAGAGCTCATTTCCGCCCACATCAAAAGTAA; 1110
TTTCAAAACCCGGAAATGACCGCCAGGCTGGCATCA; 1380
AGCCACATCCTCCCTTAGGTCTGACCGCAGCTTAAC; 5430

Task item: Field request: RUNX1 binding intensity | item: "TGGTTTCTCACTGGCGGATGTGGGTGGGTCGCCTCC"
Reply: 1100

Task item: Field request: RUNX1 binding intensity | item: "GTCTTAGGTCGGAAGTCTGTGGTCCCTGTTCACATG"
Reply: 953

Task item: Field request: RUNX1 binding intensity | item: "GTGGGGGTGACAGGATGCGGGTAGAGGGCTCAGCCA"
Reply: 1460

Task item: Field request: RUNX1 binding intensity | item: "ATCAAACCCCAGGATATGTTGGTTTTGTAGGTTGTC"
Reply: 629

Task item: Field request: RUNX1 binding intensity | item: "CCTTCCTTCCGGGGTCGGCCCCGCCCGCAAGCGCCG"
Reply: 3960

Task item: Field request: RUNX1 binding intensity | item: "CCAGCAAAGGAAGCTTGGTCAACCACAGCAGCCTGT"
Reply: 891

Task item: Field request: RUNX1 binding intensity | item: "AAAGACAGGATGTGGGGGAGTGAGCCACAAGGGCCC"
Reply: 2080

Task item: Field request: RUNX1 binding intensity | item: "CACCTGCAGTGAAGAGGATGTGGGCAAAGATTATGC"
Reply: 1100

Task item: Field request: RUNX1 binding intensity | item: "GGCAGCAAGAAAGGAAATAGTGTGGTTGGGTGGAGA"
Reply: 1010

Task item: Field request: RUNX1 binding intensity | item: "CCCTGACTTTTACGGAAATAGCGGTCCAAAAGCGCC"
Reply: 1160

Task item: Field request: RUNX1 binding intensity | item: "AGACGGGACCGGAAGCCGGGCCGCAGGCGGCCGGGC"
Reply: 1240

Task item: Field request: RUNX1 binding intensity | item: "GGACCCAGCAGAGGATGTGGTTACAGGGCCATGATA"
Reply: 2170

Task item: Field request: RUNX1 binding intensity | item: "AGACAGGAGTTCAGGAAGCTGCGGTCTAGATTATGT"
Reply: 1710

Task item: Field request: RUNX1 binding intensity | item: "TGTCGGGCGGATGTGTACCGGCGGTAATATAGTAAG"
Reply: 1220

Task item: Field request: RUNX1 binding intensity | item: "CAGACCAGCCCAGGAAACAAGGAACCACAAAGCCAC"
Reply: 992

Task item: Field request: RUNX1 binding intensity | item: "GCTGCAAGGCGGAAGCAGCGCGGTCGGACGGGCATG"
Reply: 997

Task item: Field request: RUNX1 binding intensity | item: "AGTTGGTTCCTTCCGGTGGGTTTGTGGGCTTGGGGT"
Reply: 1880

Task item: Field request: RUNX1 binding intensity | item: "CTTATCTTCTTCCTGTGAGCTGTGTGTGGGTGGCTC"
Reply: 1580

Task item: Field request: RUNX1 binding intensity | item: "ATCTTAAGTGTTTCCTGACACCACAAATCCCCAAAC"
Reply: 1020

Attribution: the supplement of paper PMC10681739
